- Test system: A498
- Method Description: Cytotoxicity against human A498 cells assessed as reduction in cell viability
- Assay type: functional, cell-based
Quantity: pIC50
pIC50 field: float, defined as -log10 of concentration (mol/L).

Some molecules with known pIC50 results, for comparison:
>  <Molecule>
C[C@@H]1CC[C@@H]2[C@@H]1[C@H](OC(=O)/C=C/c1ccccc1)[C@]1(C)C[C@@H](OC(=O)CO)[C@@]2(C)O1

>  <Readout Value>
5.34

$$$$
>  <Molecule>
CC[C@@]12C[C@@H](OC(=O)CO)[C@@](C)(O1)[C@@H]1CC[C@@H](C)[C@H]1[C@@H]2OC(=O)/C=C/c1ccccc1

>  <Readout Value>
6.02

$$$$
>  <Molecule>
CC(C)[C@@]12C[C@@H](OC(=O)CO)[C@@](C)(O1)[C@@H]1CC[C@@H](C)[C@H]1[C@@H]2OC(=O)c1ccc(Cl)cc1Cl

>  <Readout Value>
6.55

$$$$

Now examine the next entry.
Exam item: Recorded pIC50 of CC1(C)C2C[C@H](OC(=O)/C=C/c3ccccc3)C1(C)C[C@H]2OC(=O)CO (some centres undefined) , please.
Marked response: 4.46

Source of measurements: ChEMBL document CHEMBL4052604
